Numbers sourced from PubChem BioAssay (EPA / NIEHS).

Read-out: CYP2C8 (gene 1558)
Experiment: LTEA_HepaRG_CYP2C8: Life Technologies and Expression Analysis (LTEA) Assay for CYP2C8 using HepaRG (AID 2283483)
Details: mRNA level, 48 h; actives raise or lower the signal
The source made the active and inactive calls. How the source made its calls: active means hit-call score of the fitted dose curve at least 0.9, where 1 is the maximum; inactive means score below 0.9.
test-readout: AC50

Consider the worked cases shown below.
INSERT INTO results (compound, test_readout, recorded_value) VALUES
  ('Cc1c2ccccc2c(C)c2c1ccc1ccccc12', 'AC50', '37.7 µM (active)'),
  ('OC12N=C(c3ccccc3)SC1Cc1cc(Cl)ccc12 (stereo unspecified)', 'AC50', '39.6 µM (active)'),
  ('Oc1ccc2ccccc2c1', 'AC50', 'inactive'),
  ('CN(C[C@@H](CC[N+]12CCC(C3CCCCC3)(CC1)CC2)c1ccc(Cl)c(Cl)c1)C(=O)c1cc(C(F)(F)F)cc(C(F)(F)F)c1', 'AC50', '25.4 µM (active)'),
  ('O=C1c2ccccc2C(=O)N1CCc1noc(-c2ccc(CN3CCCCCC3)s2)n1', 'AC50', 'inactive');

Here's the next entry for you.
The measured AC50 associated with `CCCCCCCCOc1ccc(C(=O)c2ccccc2)c(O)c1` reads inactive

* * *

Read-out: Peroxisomal acyl-coenzyme A oxidase 1 (ACOX1) gene, ACOX1 (gene 51)
Test: LTEA_HepaRG_ACOX1: Life Technologies and Expression Analysis (LTEA) Assay for Peroxisomal acyl-coenzyme A oxidase 1 (ACOX1) gene using HepaRG (AID 2283467)
Conditions: mRNA level, 48 h; actives raise or lower the signal
Active and inactive are the calls of the source. How the source made its calls: active means hit-call score of the fitted dose curve at least 0.9, where 1 is the maximum; inactive means score below 0.9.
test-readout: AC50

Use these answered entries as a reference point.
INSERT INTO results (chemical_structure, recorded_value) VALUES
  ('C[C@]12CC[C@@H]3c4ccc(O)cc4CC[C@H]3[C@@H]1CC[C@H]2O', 'inactive'),
  ('CCCCCCCCCCCCO', 'inactive'),
  ('Cc1c2ccccc2c(C)c2c1ccc1ccccc12', '27.7 µM (active)'),
  ('CCCCCCCCOC(=O)c1cc(O)c(O)c(O)c1', 'inactive'),
  ('CC1=CC(=O)/C(=C(/C)O)C(=O)O1', 'inactive');

In plain terms, `O=c1c(-c2ccc(O)cc2)coc2cc(O)cc(O)c12` has a documented AC50 of inactive

Form field AC50, entry `CC[C@H](NC(=O)c1cc(F)ccc1NS(=O)(=O)c1cccc2cccnc12)c1ccccc1` : 71.3 µM (active)

Lab note: `Cc1cc2c(cc1C(F)(F)F)N(C(=O)Nc1ccc(Oc3cccnc3C)nc1)CC2` gave AC50 of 46 µM (active)

* * *

Attribute: AC50
Biological target: D(1A) dopamine receptor (Homo sapiens) (UniProt P21728)
Sequence (P21728 whole entry, looked up): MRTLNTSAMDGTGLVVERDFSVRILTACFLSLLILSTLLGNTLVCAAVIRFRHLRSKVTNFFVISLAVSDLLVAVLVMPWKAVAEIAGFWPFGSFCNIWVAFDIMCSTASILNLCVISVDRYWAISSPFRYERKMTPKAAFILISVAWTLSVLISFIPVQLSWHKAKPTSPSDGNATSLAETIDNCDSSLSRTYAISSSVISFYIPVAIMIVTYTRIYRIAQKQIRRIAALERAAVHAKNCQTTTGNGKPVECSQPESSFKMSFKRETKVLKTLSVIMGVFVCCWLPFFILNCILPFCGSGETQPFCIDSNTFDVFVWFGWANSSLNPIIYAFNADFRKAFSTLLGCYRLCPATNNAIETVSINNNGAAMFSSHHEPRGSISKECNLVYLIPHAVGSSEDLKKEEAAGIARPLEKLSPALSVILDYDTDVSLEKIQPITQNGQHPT
Assay: NVS_GPCR_hDRD1: NovaScreen (NVS) G Protein-Coupled Receptor Assay for human Dopamine Receptor D1 (DRD1) (AID 2283269)
Records with an inconclusive call do not appear. Calls of active or inactive are those of the source. Rule for the calls: active = hit-call score of the fitted dose curve at least 0.9, where 1 is the maximum; inconclusive = response in the unintended direction; inactive = score below 0.9.

Past entries and their recorded results:
INSERT INTO measurements (chemical_structure, recorded_value) VALUES
  ('Cc1cc(F)ccc1-c1cc(N2CC[C@@H](O)[C@H]2CO)ncc1N(C)C(=O)C(C)(C)c1cc(C(F)(F)F)cc(C(F)(F)F)c1', '5.89 µM (active)'),
  ('CN(C)C(=O)C1(N2CCCCC2)CCN(CC[C@@]2(c3ccc(Cl)c(Cl)c3)CN(C(=O)c3ccccc3)CCO2)CC1', '23.6 µM (active)'),
  ('CCCCCCCCCCCC[N+](C)(C)C', '16.1 µM (active)'),
  ('CCN(Cc1cccnc1)C(=O)c1cccc(Cl)c1[C@]1(C)C(=O)N(Cc2ccc(OC)cc2OC)c2ccc(Cl)cc21', '2.53 µM (active)'),
  ('O=c1[nH]sc2ccccc12', '6.83 µM (active)');

AC50 reading for `NCc1cccc(C2CCN(C(=O)c3ccc(C#Cc4ccccc4F)o3)CC2)c1` : 5.14 µM (active)

Memo: `COc1ccc2cc(S(=O)(=O)N[C@H](CC(=O)N[C@H](Cc3ccc(CN4[C@H](C)CCC[C@@H]4C)cc3)C(=O)N(C)C(C)C)c3ccc4c(c3)OCO4)ccc2c1` , reported AC50: 30.2 µM (active)

* * *

Test: CCTE_Shafer_MEA_acute_cross_correlation_HWHM: CCTE's Neural Acute Assay for Cross Correlation at Half Width at Half Maximum, Shafer Lab (AID 2284026);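 further: percent change per well from pre-dose baseline in spike cross-correlogram half width; hits are a decrease in cross-correlogram half width relative to DMSO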
Activity calls are given as the source filed them. How the source made its calls: active means hit-call score of the fitted dose curve at least 0.9, where 1 is the maximum; inactive means score below 0.9.
test-readout: AC50

INSERT INTO assay_data (chemical_structure, recorded_value) VALUES
  ('CC[C@@H]1C[C@H](N(Cc2cc(C(F)(F)F)cc(C(F)(F)F)c2)C(C)=O)c2cc(C(F)(F)F)ccc2N1C(=O)OC(C)C', 'inactive'),
  ('CC(C)(c1cc(Br)c(O)c(Br)c1)c1cc(Br)c(O)c(Br)c1', 'inactive'),
  ('COc1cccc([C@H](O)C2CCN(CCc3ccc(F)cc3)CC2)c1OC', '10.2 µM (active)'),
  ('CN(C)C(=O)C1(N2CCCCC2)CCN(CC[C@@]2(c3ccc(Cl)c(Cl)c3)CN(C(=O)c3ccccc3)CCO2)CC1', '22.1 µM (active)'),
  ('O=C1O[C@H]([C@@H](O)CO)C(O)=C1O', 'inactive');

So, `C[C@]12CC[C@@H]3c4ccc(O)cc4CC[C@H]3[C@@H]1CC[C@H]2O` ? Its AC50 was inactive

Looking up `COc1cc(C(=O)NC2CCN(C)CC2)ccc1Nc1ncc2c(n1)N(C1CCCC1)CC(F)(F)C(=O)N2C` , I see its AC50 listed as 30.1 µM (active)

* * *

Assay: CEETOX_H295R_ESTRADIOL: CeeTox H295R High-throughput Steroidogenesis Assay for Estradiol (AID 2283440);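 further: estradiol secreted into medium quantified by LC-MS/MS after dansyl derivatisation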
Settings: actives raise or lower the signal
Calls of active or inactive are those of the source. The calls were made as follows: active = hit-call score of the fitted dose curve at least 0.9, where 1 is the maximum; inactive = score below 0.9.
Answer with one of the outcomes 1.0 = active, 0.0 = inactive

Previously resolved entries follow.
INSERT INTO measurements (compound, answer_label) VALUES
  ('CC(=O)N1CCN(c2ccc(OC[C@H]3CO[C@](Cn4ccnc4)(c4ccc(Cl)cc4Cl)O3)cc2)CC1', 0.0),
  ('CN1C(=O)N(c2ccccc2Br)Cc2cnc(Nc3ccc4c(c3)OCC(CO)O4)nc21 (centres undefined)', 0.0),
  ('O=C(Nc1ccc(Cl)cc1)Nc1ccc(Cl)c(Cl)c1', 0.0);

Asked: What classification did `CC(C)(C)c1cc(/C=C2\SC(N)=NC2=O)cc(C(C)(C)C)c1O` end up with in this test?
Given back: 0.0

Asked: What classification did `Cc1c2ccccc2c(C)c2c1ccc1ccccc12` end up with in this test?
Given back: 0.0

Asked: Status in this test for `Clc1ccccc1C(c1ccccc1)(c1ccccc1)n1ccnc1` ?
Given back: 1.0

Asked: Record request — test call for OC12N=C(c3ccccc3)SC1Cc1cc(Cl)ccc12 (centres undefined)
Given back: 0.0

Asked: Recorded test call requested for `Cc1cc2c(cc1C(F)(F)F)N(C(=O)Nc1ccc(Oc3cccnc3C)nc1)CC2`
Given back: 0.0

Asked: How did this test come out for `CCCCCCCCOC(=O)c1cc(O)c(O)c(O)c1` ?
Given back: 0.0

* * *

Assay: BSK_4H_SRB: Viability Assessment in the BioMAP Diversity Plus: 4H Assay (AID 2283027);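 further: cells exposed to compound for 24 h before staining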
Settings: primary human endothelial cells (HUVEC)
Active and inactive are the calls of the source. The calls were made as follows: active = hit-call score of the fitted dose curve at least 0.9, where 1 is the maximum; inactive = score below 0.9.
Give your call using only these classes: active, inactive

Asked: Which result was noted for this compound in the test: `O=C(O)c1ccccc1C(=O)OCc1ccccc1`
Given back: inactive

Asked: I'd appreciate the recorded outcome for `NCc1cccc(C2CCN(C(=O)c3ccc(C#Cc4ccccc4F)o3)CC2)c1` from this test.
Given back: active

Asked: What was the test verdict on `CN(C[C@@H](CC[N+]12CCC(C3CCCCC3)(CC1)CC2)c1ccc(Cl)c(Cl)c1)C(=O)c1cc(C(F)(F)F)cc(C(F)(F)F)c1` ?
Given back: active

Asked: Recorded call for `CCCCCCCC[Si](OCC)(OCC)OCC` ?
Given back: active

Asked: Dear all, I need the recorded test outcome for `OCCO` , thank you.
Given back: inactive

Asked: Identify the outcome logged in this assay for the compound shown: `Cc1ccc(C(C)C)cc1`
Given back: inactive

* * *

Experiment: CCTE_Shafer_MEA_acute_firing_rate_mean: CCTE's Neural Acute Assay for Mean Firing Rate, Shafer Lab (AID 2284009);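 further: analyzed for loss of signal so actives lower firing rate relative to DMSO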
Activity calls are given as the source filed them. The calls were made as follows: active = hit-call score of the fitted dose curve at least 0.9, where 1 is the maximum; inactive = score below 0.9.
Select the correct class. Options are active, inactive and nothing else.

Asked: Recorded test outcome, item `CC/C(=C(/CC)c1ccc(O)cc1)c1ccc(O)cc1`
Given back: active

Asked: Hey, what did the test say about CC(O)CC(C)(C)O (configuration not stated) ?
Given back: inactive

Asked: How did this test come out for `NCc1cccc(C2CCN(C(=O)c3ccc(C#Cc4ccccc4F)o3)CC2)c1` ?
Given back: active

Asked: // param item: `CCN(Cc1cccc(S(=O)(=O)O)c1)c1ccc(C(=C2C=CC(=[N+](CC)Cc3cccc(S(=O)(=O)O)c3)C=C2)c2ccccc2S(=O)(=O)[O-])cc1` ; yields the recorded call
Given back: inactive

Asked: Short answer needed: outcome of this test for `CN(C)c1ccc(C(=C2C=CC(=[N+](C)C)C=C2)c2ccc(N(C)C)cc2)cc1` ?
Given back: active

Asked: Hey, what did the test say about `CC(C)(c1cc(Br)c(O)c(Br)c1)c1cc(Br)c(O)c(Br)c1` ?
Given back: inactive

Asked: Could you check what this test reported for `Clc1ccccc1C(c1ccccc1)(c1ccccc1)n1ccnc1` ?
Given back: active

Asked: Please state the recorded outcome for this compound: `NC(=O)c1nc(-c2cccc(-c3cc(F)ccc3OCC(F)(F)C(F)(F)F)c2)n[nH]1`
Given back: active

Asked: Field: outcome | Entry: `C[C@]12CC[C@@H]3c4ccc(O)cc4CC[C@H]3[C@@H]1CC[C@H]2O`
Given back: inactive

Asked: GET /call?item= OC12N=C(c3ccccc3)SC1Cc1cc(Cl)ccc12 (configuration not stated) returns the recorded outcome of this test.
Given back: active

Asked: So what was the verdict on `COc1cccc([C@H](O)C2CCN(CCc3ccc(F)cc3)CC2)c1OC` in this test?
Given back: active

Asked: Just curious, what result did `c1ccc2n[nH]nc2c1` get here?
Given back: inactive

Asked: Which outcome was entered for the compound `Cc1cc2c(cc1C(F)(F)F)N(C(=O)Nc1ccc(Oc3cccnc3C)nc1)CC2` in this test?
Given back: inactive
